Source listed as paper PMC8809517.

Biological target: T1, GFP-9S library array, motif 4 ND N98T;D124R (synthetic construct, N98T;D124R)
T1 chain: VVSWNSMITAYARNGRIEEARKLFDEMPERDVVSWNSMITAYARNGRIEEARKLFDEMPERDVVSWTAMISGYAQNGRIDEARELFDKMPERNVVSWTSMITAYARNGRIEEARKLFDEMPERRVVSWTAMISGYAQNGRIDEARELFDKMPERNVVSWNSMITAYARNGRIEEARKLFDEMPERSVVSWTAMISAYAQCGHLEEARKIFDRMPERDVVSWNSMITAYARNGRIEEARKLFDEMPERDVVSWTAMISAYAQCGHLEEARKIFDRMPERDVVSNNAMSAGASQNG
Test: high-throughput RNA pulldown from lysate on Ni-NTA beads; HRP: 50 mM Tris pH 8, 150 mM NaCl, 1 mM beta-mercaptoethanol, 50 ug/ml BSA, 3 ug/ml yeast RNA, 0.5% heparin; ITC and FP: Tris pH 8, 200 mM KCl, 5% glycerol; MST: 50 mM Tris pH 8, 200 mM NaCl, 1 mM DTT, BSA, heparin, 0.05% Tween 20
Settings: tags: N-terminal His-eGFP; label: 5' Cy5
Readout Label: Kd (nM)

[[record]]
binder = "AUUACACGUGA (ssRNA) [Cy5-rpoA]"
display_unit = "nM"
result_number = 132

[[record]]
binder = "AUUAGACGUGA (ssRNA) [Cy5-rpoA-G]"
display_unit = "nM"
result_number = 120

